Origin of measurements: PubChem BioAssay AID1963825

# protocol-text: Anticancer human tumor 997537-175-T-J1-PDC patient-derived colon adenocarcinoma cell line growth inhibition [POLQ]
# setup-conditions: 997537-175-T-J1-PDC complex spheroid viability, combination with POLQ inhibitors; second compound 1 µM; first compound 0.0316 µM; stronger effect = lower value
In this section, each of the molecules is paired with its reported viability, T/C.
Respond with the bare value in %.

molecule	viability, T/C, %
CCc1cc2c(N3CCc4c(cc(Cn5ccnc5)cc4-c4cn(C)nc4C(F)(F)F)C3=O)cc(C)nc2c(OC)n1 + Nc1ccc(C#CCN(C(=O)Cc2ncc(C(F)(F)F)cc2C(F)(F)F)c2ccc(F)cc2)nn1	96.4
CC(C)n1c(=O)n(C)c2cnc3cc(F)c(-c4ccc(OCCCN5CCCCC5)nc4)cc3c21 + COC1C(OC(N)=O)C(O)C(Oc2ccc3c(O)c(NC(=O)c4ccc(O)c(CC=C(C)C)c4)c(=O)oc3c2C)OC1(C)C	97.6

Turning now to a further molecule:
Challenge: What value of viability, T/C has been recorded for this entry: O=C(c1cc(Cc2n[nH]c(=O)c3ccccc23)ccc1F)N1CCN(C(=O)C2CC2)CC1 + COC1C(OC(N)=O)C(O)C(Oc2ccc3c(O)c(NC(=O)c4ccc(O)c(CC=C(C)C)c4)c(=O)oc3c2C)OC1(C)C
Response given: 100

----------
Entries and their IC50
# protocol-text: Anticancer human tumor 997537-175-T-J1-PDC cell line growth inhibition [POLQ];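 note: luminescence signal used as a surrogate for viable cells; spheroids exposed to drugs for seven days before readout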
# setup-conditions: 997537-175-T-J1-PDC complex spheroid viability, combination with POLQ inhibitors; curve of first compound; second compound 1 µM

Known results for compounds:
compound	endpoint-value
C#Cc1c(F)ccc2cc(O)cc(-c3ncc4c(N5CC6CCC(C5)N6)nc(OCC56CCCN5CC(F)C6)nc4c3F)c12 (stereo not drawn) + Nc1ccc(C#CCN(C(=O)Cc2ncc(C(F)(F)F)cc2C(F)(F)F)c2ccc(F)cc2)nn1	> 10 µM
O=c1[nH]cc(F)c(=O)[nH]1 + Cc1cccc(N(C)C(=O)C2C(O)CCN2c2nc(C)cc(C(F)(F)F)c2C#N)c1	> 10 µM

Moving on to another compound below.
Challenge: I am curious: what IC50 value has been reported for CC1COCCN1c1cc(C2(O)CC3CCC(C2)O3)c2cnn(-c3ccn[nH]3)c2n1 (stereo not drawn) + Cc1cccc(N(C)C(=O)C2C(O)CCN2c2nc(C)cc(C(F)(F)F)c2C#N)c1 ?
Response given: > 10 µM

----------
The following compounds are shown together with reported IC50 values.
# protocol-text: Anticancer human tumor 997537-175-T-J1-PDC cell line growth inhibition [POLQ];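 note: luminescence signal used as a surrogate for viable cells; spheroids exposed to drugs for seven days before readout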
# setup-conditions: 997537-175-T-J1-PDC complex spheroid viability, combination with POLQ inhibitors; curve of first compound; second compound 1 µM
# Procedure: Multicellular complex tumor spheroid response to Polymerase (POL) inhibitors (novobiocin, ART-558, RP6685) in combination with a variety of drugs and investigational agents in selected tumor cell lines The POL inhibitors (novobiocin, ART-558, and RP6685) were evaluated both individually and in combination with standard of care and investigational anticancer small molecules within a complex spheroid model of solid tumors. . […]

Guide cases for IC50, answers given:
compound	experimental-readout	endpoint-value
COc1cc(C2c3cc4c(cc3C(OC3OC5COC(C)OC5C(O)C3O)C3COC(=O)C23)OCO4)cc(OC)c1O (stereo not drawn) + Cc1cccc(N(C)C(=O)C2C(O)CCN2c2nc(C)cc(C(F)(F)F)c2C#N)c1	IC50	> 10 µM
CNCc1ccc(-c2[nH]c3cc(F)cc4c3c2CCNC4=O)cc1 + Cc1cccc(N(C)C(=O)C2C(O)CCN2c2nc(C)cc(C(F)(F)F)c2C#N)c1	IC50	> 10 µM

Please turn your attention to the following entry.
Challenge: Report IC50 for CCc1cc2c(N3CCc4c(cc(Cn5ccnc5)cc4-c4cn(C)nc4C(F)(F)F)C3=O)ccnc2c(OC)n1 + Cc1cccc(N(C)C(=O)C2C(O)CCN2c2nc(C)cc(C(F)(F)F)c2C#N)c1 please.
Response given: > 10 µM
